assay method text: soluble on expression in E. coli; label from the status in PepcDB or PDB records
measurement kind: soluble on expression in E. coli

Solved entries:
[
  {
    "macromolecule sequence": "MGSDKIHHHHHHMNIQDLRYFHELVNLKSYTKTAEKFGVSQPTITAAVKRLENRFGGTFLIRDQPHKSIIITRLGVQFDEHVQSILNEINIVEEEIKQNQNASIPFGLPPIIGRNYFPKIVSQLFAKGLLHRLNVIENGSYDLYHLLLEGYINFSMLGLTKVNVEPGIKLEVVKSYPMCIVVSKTHPLATKKAISFKEIANENFIGLSSDYIHTKALDRMLKKSKINLNTIYRSPDVTVVKNIVAQNLGISYLTTLSITENDDVISIPLLDKDQPKFILAAATRENHIMTDAEEEFWEILTQISLRRQVLTSTLPS",
    "soluble on expression in E. coli": "not soluble"
  },
  {
    "macromolecule sequence": "MHHHHHHAADPPPVHDTDGHELRADANYYVLSANRAHGGGLTMAPGHGRHCPLFVSQDPNGQHDGFPVRITPYGVAPSDKIIRLSTDVRISFRAYTTCLQSTEWHIDSELAAGRRHVITGPVKDPSPSGRENAFRIEKYSGAEVHEYKLMSSGDWCQDLGVFRDLKGGAWFLGATEPYHVVVFKKAPPA",
    "soluble on expression in E. coli": "soluble"
  },
  {
    "macromolecule sequence": "MSLNRSSIAHFTASVFVLNESHDKILGIYHKIYQSWGWVGGHADGNADLLAVAVKEVQEETGLRSFKKLSEMPISIEALPVFGHHHRKYGYVSAHIHLNVTFLFEAKESDSLQKNTDETGGLAWIPLEKFSEKSSEKEMRVIYDKIITRIINKEGHHHHHH",
    "soluble on expression in E. coli": "not soluble"
  },
  {
    "macromolecule sequence": "MSLTNVVAYIRVSTKSQGDSGLGLEAQRDYIQRAAQANDWNVVGEFVDVVSGKLALEDRPEGAKALTMCKQHNAQLLVAKLDRLSRSVLHIAQLMEQVDFKVATMPQADKFQLHLFAALAQQEREFIATRTKEALASLQRRADAGDAVAQQKVANRAEAQAKGRAVADITAANNIRMSKINTYQTNIEPHLKSCLHDKISEGHHHHHH",
    "soluble on expression in E. coli": "soluble"
  },
  {
    "macromolecule sequence": "MTMTLVNKNRKSRDENAMAKYNEKELADTSKFLSFVLRHKPEAIGIVLDREGWADINKLILCAQKAGKRLTRALLDTVVATSDKKRFSYSSDGRCIRAVQGHSTSQVAISFAEKTPPQFLYHGTASRFLDEIKKQGLIAGDRHYVHLSADEATARKVGARHGSPVVLTVKAQEMAKRGIPFWQAENGVWLTSTVAVEFLEWSFMPTGVQKQLEHHHHHH",
    "soluble on expression in E. coli": "soluble"
  },
  {
    "macromolecule sequence": "MSLSKSRKIDVHAHVLPKNIPDFQEKFGYPGFVRLDHKEDGTTHMVKDGKLFRVVEPNCFDTETRIADMNRANVNVQCLSTVPVMFSYWAKPADTEIVARFVNDDLLAECQKFPDRLVPLGTLPMNDVQRAVEEVKRCVSMGIKGFEVGSHVAEKSLDHRDFWPLYKICEELSVVLFVHPWDMHMWDGRLDKYWMPWLVGMPSETAQAICSVLMGNILVLFPKLKLCFAHGGGAYPQIRGRVSHGWNVRPDLCAGKCKVAPNKLDGLLWTDSLVHDPKALELLINTVGKEHIVLGTDYPFPLGELEVGRVVEEYKPFSAKDREDLLWKNAVKMLDIDENLLFNKDFEGHHHHHH",
    "soluble on expression in E. coli": "not soluble"
  }
]

For every item below, please supply its soluble on expression in E. coli.
1. YAGLSRFTLSYHNVEYKLFGYGTILNNTNFPGGSSGSAVFNKEKQLTSIYFGSLINVTTGNNRNVNLGLGQILRTYNTNNSKHS
2. MQMNHPIYIASDHTGLELKSLVIKHLEQQKLQVIDLGPTELDPLDDYPDYAFLLAQTMQANPNSLGILICGTGVGVCMAANKAKGILAALVVDSKTAALARQHDDANVLCLSSRFVVPEENIKIVDEFLQAQFEGGRHSKRVGKIIAYEREK
3. MNADGWLADTRSSYDTVAVSYADQLRGALAGTPYLRAALELFAGMIHTAGGGPVADVGCGPGHVTAHLHGLGVDAFGIDLSPAMIDVARRDHPDLRFEVGSMTDLNLADASVTALLAFWSLIHVPDDAIPAVFGHFRRVVRPGGPLLLGFHIGDESRLKTEGYGGHPMKVHVHHRQPVQVTAWLRDAGFTVEAQWLLGLDGHIPGAVLFAHRQSLEHHHHHH
4. MNEEGGYLGAMTYQCLYSPVMEKIKQQHRDDPRASLALNKLHTALTTCEQASPSFLYDFTKVLLDDSELSVNLQESYLRMHDTSPTNDLIVSGYEQNADYKELTKRAIELRRVLSRVPEEMSDRHAFLETIKLIASSIKKLLEAINAVYRIVPLTAQPAVEKRKREFVHYSKRFSNTLKTYFKDQNANQVSVSANQLVFQTTMIVRTINEKLRRG
5. MGSDKIHHHHHHMKRMSCLLLGGLLLSGCGKEEAPPEPIRPVVFVEAQPESMQDFGRFAGNIQARYQSVLGFRVAGRIARRNVDVGSEVKKGDLLATLDPTDQQNNVRGRQGDLANVQAQWINAQANARRQQELFDRGVGAQAQLDVALTDLKTASSSLEQAKAAEQQARDQLSYSELHSDHDAVVTEWKVEAGQVVTAGQEVVTLARPDIKEAVIDLPDALADQLPRDVVFTVASQLNPDINTTATIREIEPQADRTTRTRRTRLSLAETPVAFRLGTAISVTLSSTITARMRLPINALQEVDGKRQIWIVDPQSQTVNPRAVNITSRDNDSFVLADGVKAGEKVVSAGVNSLKPGQKVKVDEESPR
6. MGGEGPGSDDIVKKMAQLMMQGAVMLDKTCPADGLPLFKLKTGDVVCPVHGKVVIVASDEEARDVEVEEIIREVRYRAARNVMKGLEEDNVDTVSKWLGVLETAERILAIRRGSRQGQGSVRGEGRESK
7. HSGEDLPMVAPGNVRVNVVNSTLAEVHWDPVPLKSIRGHLQGYRIYYWKTQSSSKRNRRHIEKKILTFQGSKTHGMLPGLEPFSHYTLNVRVVNGKGEGPASPDRVFNTPEG

## Output
1: not soluble; 2: soluble; 3: not soluble; 4: not soluble; 5: not soluble; 6: not soluble; 7: soluble
